The reported numbers originate from patent US20140287989A1.

Measured ΔS, listed per entry for reference.
- ASSAYED TARGET: T1, E. coli β clamp (β subunit of DNA polymerase III, dnaN gene product) (E. coli, UniProt P0A988 1-366)
- T1 construct: Expressed in BL21 E. coli from pET15b with an N-terminal tag; also called β ring; β protein; not shown: N-terminal tag from plasmid pET15b ('N-tagged protein', purified on Ni-NTA)
- T1 sequence (P0A988 whole entry): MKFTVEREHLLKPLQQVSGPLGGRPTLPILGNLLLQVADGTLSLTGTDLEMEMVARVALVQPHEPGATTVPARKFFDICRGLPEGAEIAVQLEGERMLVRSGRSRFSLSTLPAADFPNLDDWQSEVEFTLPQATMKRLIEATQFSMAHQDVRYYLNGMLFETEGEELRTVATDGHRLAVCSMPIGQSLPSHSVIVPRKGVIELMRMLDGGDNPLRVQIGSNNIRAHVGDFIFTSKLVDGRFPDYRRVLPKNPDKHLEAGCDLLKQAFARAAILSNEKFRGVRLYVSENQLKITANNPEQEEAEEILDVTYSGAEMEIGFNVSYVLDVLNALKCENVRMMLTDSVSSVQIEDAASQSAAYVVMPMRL
- MEASUREMENT PROTOCOL: ITC, peptide 400 µM into β ring 20 µM, 25 °C
Square brackets hold non-standard residues; d marks the D form. Phe(3,4-Cl2) = N[C@@H](Cc1ccc(Cl)c(Cl)c1)C(=O)O; Phe(4-Br) = N[C@@H](Cc1ccc(Br)cc1)C(=O)O; Phe(4-Cl) = N[C@@H](Cc1ccc(Cl)cc1)C(=O)O; Phe(4-Me) = Cc1ccc(C[C@H](N)C(=O)O)cc1; Cha = N[C@@H](CC1CCCCC1)C(=O)O
Field format: number, assumed cal/mol/deg, no unit text.

Please review the entries below; each comes with its answer.
[[record]]
binder = "Ac-Q[Cha]DL[Phe(3,4-Cl2)]-OH (SMILES CC(=O)N[C@@H](CCC(N)=O)C(=O)N[C@@H](CC1CCCCC1)C(=O)N[C@@H](CC(=O)O)C(=O)N[C@@H](CC(C)C)C(=O)N[C@@H](Cc1ccc(Cl)c(Cl)c1)C(=O)O, also called AcQChaDLdiClF; Ac Q Cha D L diClF) [P14 (Ac-Gln-Cha-Asp-Leu-(3,4-di-Cl)Phe-OH)]"
observable = "ΔS"
uom = "cal/mol/deg"
readout_value = -30.8

[[record]]
binder = "Ac-Q[Cha]DL[Phe(4-Cl)]-OH (SMILES CC(=O)N[C@@H](CCC(N)=O)C(=O)N[C@@H](CC1CCCCC1)C(=O)N[C@@H](CC(=O)O)C(=O)N[C@@H](CC(C)C)C(=O)N[C@@H](Cc1ccc(Cl)cc1)C(=O)O, also called AcQChaDLpClF; Ac-Q Cha DL pClF) [P12 (Ac-Gln-Cha-Asp-Leu-pClPhe-OH)]"
observable = "ΔS"
uom = "cal/mol/deg"
readout_value = -18.1

[[record]]
binder = "Ac-Q[Cha]DL[Phe(4-Me)]-OH (SMILES CC(=O)N[C@@H](CCC(N)=O)C(=O)N[C@@H](CC1CCCCC1)C(=O)N[C@@H](CC(=O)O)C(=O)N[C@@H](CC(C)C)C(=O)N[C@@H](Cc1ccc(C)cc1)C(=O)O, also called AcQChaDLpMeF; Ac-Q Cha DL pMeF) [P11 (Ac-Gln-Cha-Asp-Leu-pMePhe-OH)]"
observable = "ΔS"
uom = "cal/mol/deg"
readout_value = -20.4


// moving on: another record for ΔS
In one line, give reported ΔS of the entry Ac-Q[Cha]DL[Phe(4-Br)]-OH (SMILES CC(=O)N[C@@H](CCC(N)=O)C(=O)N[C@@H](CC1CCCCC1)C(=O)N[C@@H](CC(=O)O)C(=O)N[C@@H](CC(C)C)C(=O)N[C@@H](Cc1ccc(Br)cc1)C(=O)O, also called AcQChaDLpBrF; Ac-Q Cha DL pBrF) [P13 (Ac-Gln-Cha-Asp-Leu-pBrPhe-OH)] .
-29.3
